# Measurement Protocol: S. pombe growth modifiers, basal conditions – strain 972, OD600, 24 h, no modulator, primary screen (AID 1090);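 note: basal condition with compound alone and no growth modifier present; test concentration not given here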
# Recorded Conditions: S. pombe 972 growth, higher = more signal, called active from +8 up or from −8 down
# cutoff -0.6 applies to z-score; >= gives true (1), < gives false (0)

* O=C1C2C=CC(C(O)c3ccc(Br)cc3)N(Nc3ccccc3)C2C(=O)N1c1ccccc1 (configuration not stated) | true (1)
* CC(C)c1ccc(NN2C(C(O)c3cccs3)C=CC3C(=O)N(c4ccccc4)C(=O)C32)cc1 (configuration not stated) | true (1)
* CC(C)[Si](C#C[Si](C(C)C)(C(C)C)C(C)C)(O[C@H](C)c1cn(Cc2cccc(Cl)c2)nn1)C(C)C | true (1)
* O=C1c2ccccc2[C@](Cc2ccccc2I)(C(=O)NC2CC2)[C@H](c2ccc(CO)cc2)N1Cc1ccccc1Cl | true (1)
* COCCOC(=O)N1C(=O)[C@@]2(c3cc(C#CC4(O)CCCCCC4)ccc31)[C@H](C(=O)N1CCN(c3ncccn3)CC1)[C@H]1C(=O)O[C@H](c3ccccc3)[C@H](c3ccccc3)N1[C@@H]2c1ccc(O)cc1 | false (0)
* COCCCNC(=O)[C@@H]1c2ccccc2C(=O)N(c2ccc(C)cn2)[C@H]1c1ccc(CO)cc1 | false (0)

----------
# Measurement Protocol: growth of efflux-deficient E. coli DRC39 – strain DRC39, OD650, 48 h, E. coli filamentation inducers, primary screen (AID 1179);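 note: screen aims at cell division blockers that make cells filament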
# Recorded Conditions: E. coli DRC39 delta-acrAB growth, higher = more signal, called active from +8 up or from −8 down
Metric: z-score

* [N-]=[N+]=NCc1ccccc1C[C@]1(C(=O)NCCN2CCOCC2)N=C(c2ccc(OCCCO)cc2)O[C@H]1c1ccccc1 | 0.535
* NC(=O)NCC#Cc1ccc2c(c1)[C@]1(C(=O)N2)[C@H](c2ccc(OCCO)cc2)N2[C@H](c3ccccc3)[C@H](c3ccccc3)OC(=O)[C@H]2[C@@H]1C(=O)N1CCCCCCC1 | -1.96
* C=CCC(OC(C)=O)[C@@H]1[C@@H](N(Cc2ccc(-c3ccccc3)cc2)C(=O)Cc2ccc(OC)cc2)c2cc(OCCCO)ccc2N1C(=O)c1ccc(-c2ccccc2)cc1 (stereo partly drawn) | 0.807
* COc1ccc([Si](C)(C)[C@@H]2[C@@H](CCO)O[C@]3(C(=O)N(Cc4ccccc4)c4ccc(N5CCCCC5=O)cc43)[C@H]2C)cc1 | -0.18
* COCCOC(=O)N1C(=O)[C@@]2(c3cc(C#CCCO)ccc31)[C@H](c1ccc(OCCO)cc1)N1[C@H](c3ccccc3)[C@H](c3ccccc3)OC(=O)[C@H]1[C@@H]2C(=O)N1CCc2cc(OC)c(OC)cc2C1 | 0.554
* COc1ccccc1CN1C(=O)c2ccccc2[C@@H](C(=O)NCC(C)C)[C@@H]1c1ccc(CO)cc1 | 0.347
* O=C(O)[C@]1(CCS(=O)(=O)c2ccccc2)N=C(c2ccc(OCCCO)cc2)O[C@@H]1c1ccccc1 | 0.815
* C[N+](C)(C)CCCC[C@@H]1NC(=O)[C@@H]2C[C@H](C(=O)O)[C@H](c3cccc(OCCO)c3)N2C1=O | 1.36
* O=C(O)[C@@]1(Cc2ccccc2)COC(c2ccc(OCCCO)cc2)=N1 | 0.466
* CN(C)C(=O)[C@@]1(CCS(=O)(=O)c2ccccc2)N=C(c2ccc(OCCCO)cc2)O[C@H]1c1ccccc1CN=[N+]=[N-] | 0.802
* O=C1N(Cc2ccccc2)c2ccccc2[C@H]2OC(c3ccc(OCCCO)cc3)=N[C@@]12CCS(=O)(=O)c1ccccc1 | -0.939
* COC(=O)[C@@]1(Cc2ccc(F)cc2)[C@@H]2[C@@H](CC(=O)[C@H]2CC(=O)C(=O)N2CCCC2)CN1C(=O)c1ccccc1 | -0.212
* CC(C)(C)OC(=O)CC[C@@]1(C(=O)N2CCCCC2)N=C(c2ccc(OCCCO)cc2)O[C@@H]1c1ccccc1N=[N+]=[N-] | 1.36
* COC(=O)[C@@]1(Cc2ccc(F)cc2)[C@H]2c3cc(C(=O)N(C)C)n(Cc4ccc(C)c(F)c4F)c3C[C@H]2CN1C(=O)c1ccccc1 | 0.265
* O=C1OCC=C[C@H]2OC34C=CCN(CCN5CCOCC5)C(=O)[C@H]3N(CCCCCO)C(=O)[C@@H]4[C@@H]12 (stereo partly drawn) | -1.37
* COC(=O)[C@]1(Cc2ccccc2N=[N+]=[N-])N=C(c2ccc(OCCCO)cc2)O[C@@H]1c1ccccc1 | 1.55
* CC(=O)NCCCC[C@@H]1NC(=O)[C@H]2C[C@@H](C(=O)NCCCCCN)[C@@H](c3cccc(OCCO)c3)N2C1=O | 1.24
* CN1C(=O)C2C=CC(C(O)C3CCCCC3)N(N(c3ccccc3)c3ccccc3)C2C1=O (stereo not drawn) | -0.121
* C=CCOC(=O)[C@@H]1[C@H]2C(=O)O[C@H](c3ccccc3)[C@H](c3ccccc3)N2[C@H](c2ccc(OCCOC(=O)[C@@H]3C[C@@H]4C(=O)N[C@@H](CCCCNC(C)=O)C(=O)N4[C@@H]3c3ccc(O)cc3)cc2)[C@@]12C(=O)Nc1ccc(I)cc12 | 0.099
* COC(=O)C(CC#Cc1ccc2c(c1)[C@]1(C(=O)N2)[C@H](c2ccccc2OCCO)N2[C@H](c3ccccc3)[C@H](c3ccccc3)OC(=O)[C@H]2[C@@H]1C(=O)Nc1nc2ccccc2s1)C(=O)OC | 0.172
* COCCCNC(=O)[C@@H]1c2ccccc2C(=O)N(Cc2cc(F)cc(C(F)(F)F)c2)[C@H]1c1ccc(CO)cc1 | -0.0475
* CCCN1C(=O)[C@@]2(Cc3ccccc3)N=C(c3ccc(OCCCO)cc3)O[C@H]2c2ccccc21 | -0.319
* CCCCC(=C=CC[C@H](O)c1cccc(OCCO)c1)C[C@H](O)COCc1ccccc1 | 0.122
* C[C@@]1([C@@H](NC(=O)c2cccs2)c2ccc(-c3ccccc3)cc2)C[C@H]1C1CCCCC1 | -0.483
* COCCCNC(=O)[C@@]1(C)c2ccccc2C(=O)N(c2ccc(C)cn2)[C@H]1c1ccc(CO)cc1 | -0.087
* CC(C)N1CC=CC23O[C@@H]4C=CCOC(=O)[C@@H]4[C@H]2C(=O)N(CCCCCCO)[C@@H]3C1=O (stereo partly drawn) | 0.24
* CC(C)NC(=O)[C@@]1(Cc2ccccc2I)c2ccccc2C(=O)N(Cc2ccccc2C(F)(F)F)[C@H]1c1ccc(CO)cc1 | -0.319
* CC(C)C[C@@H]1NC(=O)[C@@H]2C[C@H](C(=O)NCCCC[N+](C)(C)C)[C@H](c3cccc(OCCO)c3)N2C1=O | -0.667

----------
# Measurement Protocol: binders of probe aHhip on microarray, primary screen, stem cell growth factor project, biochemical, small-molecule microarray, fluorescence 635/667 (AID 1087);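 note: score merges spot fluorescence at 667nm with spot signal to noise ratio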
# Recorded Conditions: higher = more signal
Each entry below carries its reported composite z-score.
Metric: composite z-score

• NCCCCCCNC(=O)[C@H]1C[C@H]2C(=O)N3CCC[C@H]3C(=O)N2[C@H]1c1ccc(O)cc1 = -0.184
• NC(=O)[C@@H]1[C@H]2C(=O)O[C@H](c3ccccc3)[C@H](c3ccccc3)N2[C@H](c2ccccc2OCCO)[C@@]12C(=O)Nc1ccc(C#CCCO)cc12 = -0.236
• C=CCC(OC(C)=O)[C@@H]1[C@@H](N(Cc2cccc3ccccc23)C(=O)Cc2ccc(F)cc2)c2cc(OCCCO)ccc2N1C(=O)Cc1ccc(OC)cc1 (stereo not given in full) = -0.191
• O=C1c2ccccc2[C@](Cc2ccccc2I)(C(=O)NC2CC2)[C@H](c2ccc(CO)cc2)N1Cc1ccccc1Cl = -0.105
• COCCOC(=O)N1C(=O)[C@@]2(c3cc(C#CC4(O)CCCCCC4)ccc31)[C@H](C(=O)N1CCc3cc(OC)c(OC)cc3C1)[C@H]1C(=O)O[C@H](c3ccccc3)[C@H](c3ccccc3)N1[C@@H]2c1ccccc1OCCO = 0.623
• O=C1NC(=O)C2C1C=CC(C(O)CCc1ccccc1)N2Nc1ccccn1 (stereo not given) = -0.407
• CN1C(=O)C2C=CC(C(O)COCc3ccccc3)N(Nc3ccccc3)C2C1=O (stereo not given) = -0.166
• OCCCC1=CC(c2cccs2)N(Cc2cccc(OC(F)(F)F)c2)CC1 (stereo not given) = 0.0401
• COCCCNC(=O)[C@@]1(Cc2ccccc2CN=[N+]=[N-])N=C(c2ccc(OCCCO)cc2)O[C@H]1c1ccccc1N=[N+]=[N-] = 0.351
• COCCCNC(=O)[C@@]1(Cc2ccccc2I)c2ccccc2C(=O)N(Cc2ccccc2Cl)[C@H]1c1ccc(CO)cc1 = -0.156
• C[C@]12C(=O)N(CCCO)[C@@H]3C(=O)N(c4ccc(Cl)cc4)CC=CC31O[C@@H]1/C=C\CCCOC(=O)C12 (stereo not given in full) = -0.363
• CCOC(=O)C[C@H]1[C@H](OC(=O)Cc2ccc3c(c2)OCO3)[C@@H](NC(=O)c2ccccc2)c2cc(OCCCO)ccc2N1C(=O)c1ccc2ccccc2n1 = -0.175
• O=C1O[C@H](c2ccccc2)[C@H](c2ccccc2)N2[C@H]1[C@@H](C(=O)N1CCCCCCC1)[C@]1(C(=O)Nc3ccc(C#CCCO)cc31)[C@H]2c1ccc(OCCO)cc1 = 2.53
• C[N+](C)(C)CCCCCCNC(=O)[C@@H]1C[C@@H]2C(=O)NCC(=O)N2[C@@H]1c1cccc(OCCO)c1 = -0.34
• COC(=O)[C@@]1(Cc2ccc(OC)cc2)[C@H]2c3cc(C(=O)N4CCCC4)n(CCc4ccc(O)c(OC)c4)c3C[C@H]2CN1C(=O)c1ccccc1 = 0.167
